These data points were gathered from the supplement of paper PMC7366291.

For each of the compounds below, state its glomerular width.
test system: Danio rerio Tg(wt1b:EGFP) embryo, pronephros; test: glomerular width (mean of left and right), fold change vs DMSO control; higher = wider glomerulus; conditions: 25 µM; exposure: 24-48 hpf
Where a name gives a salt, the structure may show the parent alone.
Could you respond with only the numeric value?

Recorded glomerular width for CCC(=O)O[C@]1(C(=O)SCF)[C@H](C)C[C@H]2[C@@H]3C[C@H](F)C4=CC(=O)C=C[C@]4(C)[C@@]3(F)[C@@H](O)C[C@@]21C [Fluticasone propionate] with Danio rerio Tg(wt1b:EGFP) embryo, pronephros, please?
1.27

Recorded glomerular width for CCCCCCC[N+](CC)(CC)CCCCc1ccc(Cl)cc1 [Clofilium tosylate] with Danio rerio Tg(wt1b:EGFP) embryo, pronephros, please?
1.04

Recorded glomerular width for COc1cc(N)c(Cl)cc1C(=O)NC1CCN(CCCOc2ccc(F)cc2)CC1OC (centres undefined) [Cisapride] with Danio rerio Tg(wt1b:EGFP) embryo, pronephros, please?
1.07

Recorded glomerular width for Cc1ncc([N+](=O)[O-])n1CC(O)CCl (centres undefined) with Danio rerio Tg(wt1b:EGFP) embryo, pronephros, please?
1.06
